Provenance of the data: ChEMBL document CHEMBL1255197

- targetEntity: Acetylcholine-binding protein (Lymnaea stagnalis)
- Sequence (P58154 whole entry): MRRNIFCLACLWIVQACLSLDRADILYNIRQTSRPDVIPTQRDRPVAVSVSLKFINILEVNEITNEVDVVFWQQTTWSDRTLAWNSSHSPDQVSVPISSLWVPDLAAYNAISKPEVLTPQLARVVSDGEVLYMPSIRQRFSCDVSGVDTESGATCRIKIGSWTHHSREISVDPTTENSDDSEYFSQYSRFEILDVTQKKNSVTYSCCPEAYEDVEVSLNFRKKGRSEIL
experimentalEndpoint: pKi
The value called pKi is obtained by taking minus log10 of the concentration in mol/L.

See these solved cases before continuing.
O=C(Nc1ccccc1)N[C@@H]1C2CCN(CC2)[C@H]1Cc1cccnc1	6.25
O=C(N[C@@H]1C2CCN(CC2)[C@H]1Cc1cccnc1)c1ccccc1	6.62
NCCc1cccnc1	4.03
O=C(Nc1ccc(Br)cc1)N[C@@H]1C2CCN(CC2)[C@H]1Cc1cccnc1	6.15
O=C(Nc1ccc(Br)cc1)O[C@H]1CN2CCC1CC2	5.52
O=C(N[C@@H]1C2CCN(CC2)[C@H]1Cc1cccnc1)c1cccs1	6.83
O=C(N[C@@H]1C2CCN(CC2)[C@H]1Cc1cccnc1)c1cc2ccccc2o1	7.84
O=C(Nc1ccccc1)O[C@H]1CN2CCC1CC2	5.10

### Prompt API: value(readout= pKi, system= Acetylcholine-binding protein (Lymnaea stagnalis), query= N[C@H]1CN2CCC1CC2 )
### Response 3.96

### Prompt Entry O=C(Nc1ccccc1)N[C@H]1CN2CCC1CC2 , system Acetylcholine-binding protein (Lymnaea stagnalis): what pKi was measured?
### Response 5.26

### Prompt // lookup pKi | system=Acetylcholine-binding protein (Lymnaea stagnalis) | key= N[C@@H]1C2CCN(CC2)[C@H]1Cc1cccnc1
### Response 6.33

### Prompt Please tell me: pKi of O=C(Nc1ccccc1)O[C@@H]1C2CCN(CC2)[C@H]1Cc1cccnc1 , system Acetylcholine-binding protein (Lymnaea stagnalis)?
### Response 7.21

* * *

- targetEntity: Neuronal acetylcholine receptor subunit alpha-7 (Homo sapiens)
- Sequence (P36544 whole entry): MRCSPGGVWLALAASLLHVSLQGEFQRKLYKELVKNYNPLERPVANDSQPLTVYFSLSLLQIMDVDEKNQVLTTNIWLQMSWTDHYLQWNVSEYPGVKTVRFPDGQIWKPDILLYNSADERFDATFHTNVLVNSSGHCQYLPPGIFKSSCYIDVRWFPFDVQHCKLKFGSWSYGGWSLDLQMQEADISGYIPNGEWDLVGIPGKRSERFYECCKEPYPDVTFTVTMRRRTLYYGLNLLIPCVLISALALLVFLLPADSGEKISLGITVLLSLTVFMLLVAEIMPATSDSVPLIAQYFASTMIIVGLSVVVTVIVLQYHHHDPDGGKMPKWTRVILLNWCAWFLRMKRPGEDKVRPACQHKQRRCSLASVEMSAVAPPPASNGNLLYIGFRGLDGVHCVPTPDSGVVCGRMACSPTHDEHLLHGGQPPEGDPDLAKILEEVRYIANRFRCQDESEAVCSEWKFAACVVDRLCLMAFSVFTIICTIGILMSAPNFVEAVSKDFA
- protocolText: biochemical
- Description: Displacement of [3H]-MLA from human alpha7 nAChR expressed in human SH-SY5Y cells
experimentalEndpoint: Ki (µM)
Just the number in µM, nothing appended.

In the examples that follow, each entry is paired with its recorded Ki.
O=C(Nc1ccc(Br)cc1)N[C@@H]1C2CCN(CC2)[C@H]1Cc1cccnc1	0.0257
N[C@@H]1C2CCN(CC2)[C@H]1Cc1cccnc1	2.29

Consider now this further compound.
### Prompt Requested field: Ki. Item: O=C(N[C@@H]1C2CCN(CC2)[C@H]1Cc1cccnc1)Oc1ccccc1
### Response 0.0372

* * *

- targetEntity: Neuronal acetylcholine receptor subunit alpha-7 (Homo sapiens)
- protocolText: biochemical
experimentalEndpoint: pKi
pKi is defined as minus the log10 of a concentration measured in mol/L.

Consider the reported pKi for these molecules:
O=C(Nc1ccc(Br)cc1)O[C@H]1CN2CCC1CC2	7.41
O[C@@H]1C2CCN(CC2)[C@H]1Cc1cccnc1	5.48
O=C(N[C@H]1CN2CCC1CC2)c1ccc(Cl)cc1	7.61
O=C(Nc1ccc(Br)cc1)OCCCc1cccnc1	5.16
O=C(N[C@@H]1C2CCN(CC2)[C@H]1Cc1cccnc1)c1cccs1	7.36
CN(C)CCc1cccnc1	5.50

### Prompt Form: Entry = O=C(Nc1ccccc1)O[C@@H]1C2CCN(CC2)[C@H]1Cc1cccnc1 | System = Neuronal acetylcholine receptor subunit alpha-7 (Homo sapiens) | pKi = ____
### Response 7.73

### Prompt Form field - read-out: pKi; system: Neuronal acetylcholine receptor subunit alpha-7 (Homo sapiens); submitted item: O=C(Nc1ccccc1)N[C@@H]1C2CCN(CC2)[C@H]1Cc1cccnc1
### Response 7.54

### Prompt Hi! What's the reported pKi for O=C(Nc1ccccc1)N[C@H]1CN2CCC1CC2 on Neuronal acetylcholine receptor subunit alpha-7 (Homo sapiens)?
### Response 6.96

### Prompt Short answer please: pKi, Neuronal acetylcholine receptor subunit alpha-7 (Homo sapiens), entry O=C(Nc1ccc(Br)cc1)N[C@H]1CN2CCC1CC2
### Response 7.36

### Prompt Please state recorded pKi (tested on Neuronal acetylcholine receptor subunit alpha-7 (Homo sapiens)) of N[C@H]1CN2CCC1CC2
### Response 5.20

### Prompt Please tell me: pKi of O=C(Nc1ccccc1)OCCCc1cccnc1 , system Neuronal acetylcholine receptor subunit alpha-7 (Homo sapiens)?
### Response 4.84

### Prompt I'm curious: which pKi was measured for NCCc1cccnc1 tested on Neuronal acetylcholine receptor subunit alpha-7 (Homo sapiens)?
### Response 5.07
